# Tested on: SB.msgc-1
# ASSAY_OVERVIEW: area under the dose-response curve of % viability (trapezoidal, 11 doses) (% viability x log10 concentration); higher = less cytotoxic
# STATED_CONDITIONS: SB.msgc-1 (sporadic gastric cancer)
Label scheme for area under the dose-response curve: lower than 500 is 0.0, 500 and above is 1.0.

These solved cases illustrate the format of a correct answer.
[
  {
    "COMPOUND": "CCN1\\C=C(\\C(O)=O)C(=O)C2=C1C=C(N3CCNCC3)C(=C2)F [Norfloxacin] (top concentration 46.0829 µM)",
    "QUALITATIVE_LABEL": 1.0
  },
  {
    "COMPOUND": "Cc1ccc(/C=N/NC(=O)c2ccccc2Oc2ccccc2)o1 (top concentration 46.0829 µM)",
    "QUALITATIVE_LABEL": 1.0
  }
]

Quick check, area under the dose-response curve >= 500? COc1ccc(C(C)=O)c(O)c1 [Paeonol] (top concentration 46.0829 µM)
1.0
